Test system: RANTES induced THP-1 cell migration
Assay: ChemoTx transwell migration assay, RANTES induced migration of THP-1 cells
Format: cell-based
Details: Homo sapiens, maximal dose of chemoattractant, read-out: ED50 RANTES
pEC50: −log10 of the molar value.
ENDPOINT_NAME: pEC50

{"columns": ["SMILES_REPRESENTATION", "VALUE_OBSERVED"],
 "data": [
  ["O=C1NCCCC[C@@H]1NC(=O)C12CC3CC(CC(C3)C1)C2", 10.00]
]}

====

We begin with a simple list: items and their reported Revertant colony formation TA98.
System: S. Typhinurium (TA 102, TA98 and TA 100)
Test: AMES test, revertant colony formation
Assay type: cell-based
Conditions: TA98 without S9, top dose 5 mg/ml
Marks after values point to notes of the source that are not given here.

{"columns": ["COMPOUND", "Revertant colony formation TA98"],
 "data": [
  ["CC(C)(C)C(=O)N[C@H]1CCCNC1=O [Compound (I′)]", "2.00**"],
  ["CC1(C(=O)N[C@H]2CCCCNC2=O)CCCCC1 [(III)]", 0.68],
  ["O=C1NCCCC[C@@H]1NC(=O)C12CC3CC(CC(C3)C1)C2 [(II)]", "0.58*"],
  ["O=C1NCCCC[C@@H]1NC(=O)C12CC3CC(CC(O)(C3)C1)C2 [(V)]", 0.96],
  ["CC(C)(C)S(=O)(=O)N[C@H]1CCCCNC1=O [(IV)]", 0.82]
]}
